What IC50 was measured for each of the following?
System: Platelet Agglutination
Experiment: In vitro inhibition of platelet agglutination (rabbit platelet rich plasma, aggregometer) induced by arachidonic acid, collagen or ADP
Assay type: cell-based
Conditions: Oryctolagus cuniculus, ADP, final 30 μM, rabbit PRP, 37° C., compound in dimethylsulfoxide+saline, read-out: Inhibition Activity against Platelet Agglutination [50% Inhibition Concentration (μM)], ADP
Write the number in µM without appending the unit.

Task: Value lookup for IC50; key = C#C[C@]12C[C@@H](O)[C@H](/C=C/[C@@H](O)C(C)CCCC)[C@H]1CC(SCCCC(=O)OCC)=N2 (stereo partly drawn) [17(S)g-b]
Output: 0.0066

Task: // query: C#C[C@]12C[C@@H](O)[C@H](/C=C/[C@@H](O)C(C)CC#CC)[C@H]1CC(SCCCC(=O)OCC)=N2 (stereo partly drawn) [17(S)g-d]
Output: 0.014

Task: Entry to check: C=C[C@]12C[C@@H](O)[C@H](/C=C/[C@H](O)C(C)CC#CC)[C@H]1CC(SCCCC(=O)OCC)=N2 (stereo partly drawn) [17(R)l-d]
Output: 55

Task: Field entry: C#C[C@]12C[C@@H](O)[C@H](/C=C/[C@H](O)C(C)CC#CC)[C@H]1CC(SCCCC(=O)OCC)=N2 (stereo partly drawn) [17(R)g-d]
Output: 8.43

Task: What about this molecule? CCCCC[C@H](O)/C=C/[C@H]1[C@H](O)C[C@]2(C#Cc3ccccc3)N=C(SCCCC(=O)OCC)C[C@H]12 [17(S)i]
Output: 5

Task: Input CCCCC[C@H](O)/C=C/[C@@H]1[C@H]2CC(SCCCC(=O)OC)=N[C@H]2C[C@H]1O [Compound 18c, reference compound]
Output: 0.074

Task: Same lookup for C#C[C@]12C[C@@H](O)[C@H](/C=C/[C@@H](O)CCCCC)[C@H]1CC(SCCCC(=O)O)=N2 [19(S)g] , please.
Output: 0.0049

Task: C#CC#C[C@]12C[C@@H](O)[C@H](/C=C/[C@@H](O)CCCCC)[C@H]1CC(SCCCC(=O)OCC)=N2 [17(S)k] , same question.
Output: 0.27

Task: Then CCCCC[C@H](O)/C=C/[C@H]1[C@H](O)C[C@]2(CC)N=C(SCCCC(=O)OCC)C[C@H]12 [17(S)d] ?
Output: 18

Task: Entry C#C[C@]12C[C@@H](O)[C@H](/C=C/[C@@H](O)C3CCCCC3)[C@H]1CC(SCCCC(=O)OCC)=N2 [17(S)g-e] please
Output: 0.033

Task: Thanks! And C#C[C@]12C[C@@H](O)[C@H](/C=C/[C@@H](O)CCCCC)[C@H]1CC(SCCCC(=O)OC)=N2 [18(S)g] ?
Output: 0.0241

Task: Moving on to CC#C[C@]12C[C@@H](O)[C@H](/C=C/[C@@H](O)CCCCC)[C@H]1CC(SCCCC(=O)OCC)=N2 [17(S)h]
Output: 0.006

Task: Note, next up: C=C[C@]12C[C@@H](O)[C@H](/C=C/[C@@H](O)CCCCC)[C@H]1CC(SCCCC(=O)OCC)=N2 [17(S)l]
Output: 0.42

Task: Entry C=C[C@]12C[C@@H](O)[C@H](/C=C/[C@@H](O)C3CCCC3)[C@H]1CC(SCCCC(=O)OCC)=N2 [17(S)l-f] please
Output: 0.3

Task: Would you mind doing CCCCC[C@H](O)/C=C/[C@H]1[C@H](O)C[C@]2(C)N=C(SCCCC(=O)OCC)C[C@H]12 [17(S)e] as well?
Output: 1.6

Task: Now give it for CCCCC[C@H](O)/C=C/[C@H]1[C@H](O)C[C@]2(Sc3ccccc3)N=C(SCCCC(=O)OCC)C[C@H]12 [17(S)a] too.
Output: 16

Task: Item: CCCCC[C@H](O)/C=C/[C@H]1[C@H](O)C[C@]2(C#N)N=C(SCCCC(=O)OCC)C[C@H]12 [17(S)m]
Output: 0.167

Task: Cool, now C#C[C@]12C[C@@H](O)[C@H](/C=C/[C@H](O)C3CCCCC3)[C@H]1CC(SCCCC(=O)OCC)=N2 [17(R)g-e]
Output: 13.4

Task: // repeat for CC#C[C@]12C[C@@H](O)[C@H](/C=C/[C@@H](O)CCCCC)[C@H]1CC(SCCCC(=O)O)=N2 [19(S)h] and report
Output: 0.0042

Task: Could you do the same for C=C[C@]12C[C@@H](O)[C@H](/C=C/[C@@H](O)C(C)CC#CC)[C@H]1CC(SCCCC(=O)OCC)=N2 (stereo partly drawn) [17(S)l-d] , please?
Output: 0.13

Task: Here is the next molecule: C#C[C@]12C[C@@H](O)[C@H](/C=C/[C@@H](O)CCCCC)[C@H]1CC(SCCCC(=O)OCC)=N2 [17(S)g]
Output: 0.011

Task: What do you have for C=C[C@]12C[C@@H](O)[C@H](/C=C/[C@H](O)C3CCCC3)[C@H]1CC(SCCCC(=O)OCC)=N2 [17(R)l-f] ?
Output: 142

Task: Next molecule: C#C[C@]12C[C@@H](O)[C@H](/C=C/[C@H](O)C(C)CCCC)[C@H]1CC(SCCCC(=O)OCC)=N2 (stereo partly drawn) [17(R)g-b]
Output: 2.06

Task: Also, CCCCC[C@H](O)/C=C/[C@H]1[C@H](O)C[C@]2(OC)N=C(SCCCC(=O)OCC)C[C@H]12 [17(S)b] please.
Output: 15
